# Species: Rattus norvegicus
# test-protocol: Open TG-GATES - Regimen: Single
# Assay type: toxicity, organism-based, Sprague-Dawley
# Set-up: regimen Single, gender Male, age 6 weeks
# assay-context: in vivo, po, 300 mg/kg, 3 h, tissue Blood, route gavage, dose level Middle
Provide the reported Ret of each item.
Numbers only, in %.

Batch: Ret for all items listed.
1. O=C(O)c1cn(C2CC2)c2cc(N3CCNCC3)c(F)cc2c1=O
2. C[C@H](CS)C(=O)N1CCC[C@H]1C(=O)O

1: 11.6; 2: 6.6

Batch: Ret for all items listed.
1. CCc1cc(C(N)=S)ccn1 [ETHIONAMIDE]
2. O=C(O)c1cc(/N=N/c2ccc(S(=O)(=O)Nc3ccccn3)cc2)ccc1O

1: 7.4; 2: 6.7

Using the record for `Clc1ccccc1CN1CCc2sccc2C1` , report its Ret.
8.4

----------
Provide the reported BUN of each item.
# Organism: Rattus norvegicus
# test-protocol: Open TG-GATES - Regimen: Single
# Type: toxicity, organism-based, Sprague-Dawley
# Set-up: regimen Single, gender Male, age 6 weeks
# assay-context: in vivo, po, 300 mg/kg, 6 h, tissue Plasma, route gavage, dose level Middle
Answers are plain numbers, in mg/dL.

CCc1cc(C(N)=S)ccn1 [ETHIONAMIDE]
18.4
C[C@H](CS)C(=O)N1CCC[C@H]1C(=O)O [CAPTOPRIL]
21.8
O=C(O)c1cn(C2CC2)c2cc(N3CCNCC3)c(F)cc2c1=O [CIPROFLOXACIN]
11

Next compound, BUN to be filled in.
Using the record for O=C(O)c1cc(/N=N/c2ccc(S(=O)(=O)Nc3ccccn3)cc2)ccc1O [SULFASALAZINE] , report its BUN.
11.4

----------
# Species on record: Rattus norvegicus
# test-protocol: Open TG-GATES - Regimen: Single
# Format: toxicity, organism-based, Sprague-Dawley
# Design: regimen Single, gender Male, age 6 weeks
# assay-context: in vivo, po, 0 mg/kg, 24 h, tissue Blood, route gavage, dose level Control
value-kind: WBC

Example results:
CN(C)CCC=C1c2ccccc2CCc2ccccc21
101.9 x10_2/uL
CC(=O)Oc1ccccc1C(=O)O
109.6 x10_2/uL

Batch: WBC for all items listed.
1. COc1cc2c(c3oc(=O)c4c(c13)CCC4=O)[C@@H]1C=CO[C@@H]1O2
2. NC(=O)N/N=C/c1ccc([N+](=O)[O-])o1
3. CSc1ccc2c(c1)N(CCC1CCCCN1C)c1ccccc1S2 (stereo not drawn)
4. CCc1cc(C(N)=S)ccn1 [ETHIONAMIDE]

76.8 x10_2/uL
96.7 x10_2/uL
127.4 x10_2/uL
117.6 x10_2/uL

Batch: WBC for all items listed.
1. Clc1ccccc1CN1CCc2sccc2C1
2. COc1ccc(Cc2nccc3cc(OC)c(OC)cc23)cc1OC

["110.6 x10_2/uL", "110.4 x10_2/uL"]

----------
# Organism: Rattus norvegicus
# test-protocol: Open TG-GATES - Regimen: Daily Repeat
# Format: toxicity, organism-based, Sprague-Dawley
# Design: regimen Daily Repeat, gender Male, age 6 weeks
# assay-context: in vivo, po, 0 mg/kg, 72 h, tissue Blood, route gavage, dose level Control, time 3 day
value-kind: Plat (x10_4/uL)
One number for each entry, in x10_4/uL.

Batch: Plat for all items listed.
1. CN(C)CCC=C1c2ccccc2CCc2ccccc21 [AMITRIPTYLINE]
2. NC(=O)N/N=C/c1ccc([N+](=O)[O-])o1 [NITROFURAZONE]
3. CCCC(CCC)C(=O)O [VALPROIC ACID]
4. NC(=O)N1c2ccccc2C=Cc2ccccc21 [CARBAMAZEPINE]
5. CCc1cc(C(N)=S)ccn1 [ETHIONAMIDE]
6. Clc1ccccc1CN1CCc2sccc2C1 [TICLOPIDINE]

1. 116.7
2. 111.2
3. 135
4. 123.2
5. 128
6. 127.8
